Assay: Oral exposure in cynomolgus monkeys, compound alone or with excipient in capsules; plasma by LC-MS/MS
Format: in vivo
Details: male, cynomolgus monkey, plasma, po, 50 mg, oral, enteric capsule, dose 50 mg, with 195 mg sodium citrate, 3 mg SDS, fasted; read-out: Cmax
observationType: Cmax (ng/mL)

(a) C[C@H](Nc1cc(Cl)nc2c1cnn2[C@@H]1O[C@H](COP(=O)(O)CP(=O)(O)O)[C@@H](O)[C@H]1O)c1ccccc1F
(b) C[C@H](Nc1cc(Cl)nc2c1cnn2[C@@H]1O[C@H](COP(=O)(O)CP(=O)(O)O)[C@@H](O)[C@H]1O)c1ccc(F)cc1
(c) C[C@H](Nc1nc(Cl)nc2c1cnn2[C@@H]1O[C@H](COP(=O)(O)CP(=O)(O)O)[C@@H](O)[C@H]1O)c1ccccc1
Q) From the items above, give an ordering by Cmax that starts at the lowest reported number. Returns: the labels listed in the requested order.
A) a, b, c
(a: 922 ng/mL, b: 1320 ng/mL, c: 2530 ng/mL)

----------
Assay: Oral exposure in cynomolgus monkeys, compound alone or with excipient in capsules; plasma by LC-MS/MS
Type: in vivo
Details: male, cynomolgus monkey, plasma, po, 50 mg, oral, enteric capsule, dose 50 mg, with 400 mg sodium phosphate, fasted; read-out: Cmax
observationType: Cmax (ng/mL)
Could you give me the number in ng/mL? Just the number is fine.

Q) Fill blank: measured Cmax of the compound "C[C@H](Nc1cc(Cl)nc2c1cnn2[C@@H]1O[C@H](COP(=O)(O)CP(=O)(O)O)[C@@H](O)[C@H]1O)c1ccccc1F" is ____.
A) 700

----------
Test: Oral exposure in cynomolgus monkeys, compound alone or with excipient in capsules; plasma by LC-MS/MS
Format: in vivo
Details: male, cynomolgus monkey, plasma, po, 50 mg, oral, enteric capsule, dose 50 mg, with 195 mg sodium citrate, 6 mg sodium dodecyl sulfate (SDS), fasted; read-out: Cmax
observationType: Cmax (ng/mL)

(P) C[C@H](Nc1nc(Cl)nc2c1cnn2[C@@H]1O[C@H](COP(=O)(O)CP(=O)(O)O)[C@@H](O)[C@H]1O)c1ccccc1
(Q) C[C@H](Nc1cc(Cl)nc2c1cnn2[C@@H]1O[C@H](COP(=O)(O)CP(=O)(O)O)[C@@H](O)[C@H]1O)c1ccccc1F
Q) Please indicate which entry, P or Q , has the lower recorded Cmax value. Response format: the label of the selected entry.
A) Q

----------
Test: Oral exposure in cynomolgus monkeys, compound alone or with excipient in capsules; plasma by LC-MS/MS
Format: in vivo
Settings: male, cynomolgus monkey, plasma, po, 50 mg, enteric capsule, with 50 mg sodium phytate (Sigma-Aldrich), fasted
observationType: AUC(0-inf) (ng·h/mL)
Could you give me the number in ng·h/mL? Just the number is fine.

Q) Fill blank: measured AUC(0-inf) of the molecule C[C@H](Nc1cc(Cl)nc2c1cnn2[C@@H]1O[C@H](COP(=O)(O)CP(=O)(O)O)[C@@H](O)[C@H]1O)c1ccccc1F [Ia (•3Na)] is ____.
A) 59700

----------
Test: Oral exposure in cynomolgus monkeys, compound alone or with excipient in capsules; plasma by LC-MS/MS
Format: in vivo
Conditions: male, cynomolgus monkey, plasma, po, 50 mg, enteric capsule, with 325 mg sodium polystyrene sulfate, fasted
observationType: AUC(0-inf) (ng·h/mL)
Could you give me the number in ng·h/mL? Just the number is fine.

Q) Fill blank: measured AUC(0-inf) of the molecule "C[C@H](Nc1cc(Cl)nc2c1cnn2[C@@H]1O[C@H](COP(=O)(O)CP(=O)(O)O)[C@@H](O)[C@H]1O)c1ccccc1F" is ____.
A) 41400
